# PROTOCOL_SUMMARY: Measured activity expressed as ID50 (analogue)/ID50 (paclitaxel), where ID50 is the concentration of compound leading to 50% inhibition of the rate microtubule disassembly
# Format: functional
MEASUREMENT_LABEL: Activity

molecule="CC(=O)O[C@@]12COC1C[C@H](O)[C@@]1(C)C(=O)[C@H](O)C3=C(C)[C@@H](OC(=O)[C@H](O)[C@H](NC(=O)C4CCCC4)C(C)(C)C)C[C@@](O)([C@@H](OC(=O)c4ccccc4)[C@@H]12)C3(C)C (some centres undefined)" observed_result=1.5
molecule="CC(=O)O[C@H]1C(=O)[C@]2(C)[C@@H](O)CC3OC[C@@]3(OC(C)=O)[C@H]2[C@H](OC(=O)C2CCCCC2)[C@]2(O)C[C@H](OC(=O)[C@H](O)[C@@H](NC(=O)c3ccccc3)c3ccccc3)C(C)=C1C2(C)C (some centres undefined)" observed_result=1.7
molecule="CC(=O)O[C@H]1C(=O)[C@]2(C)[C@@H](O)CC3OC[C@@]3(OC(C)=O)[C@H]2[C@H](OC(=O)c2ccccc2)[C@]2(O)C[C@H](OC(=O)[C@H](O)[C@H](NC(=O)c3ccccc3)c3ccc(Cl)cc3)C(C)=C1C2(C)C (some centres undefined)" observed_result=2.4
molecule="COC(=O)[C@H]1CC2OC[C@@]2(OC(C)=O)[C@H]2[C@H](OC(=O)c3ccccc3)[C@]3(O)C[C@H](OC(=O)[C@H](O)[C@@H](NC(=O)c4ccccc4)c4ccccc4)C(C)=C([C@@H](OC(C)=O)[C@H](C(=O)OC)[C@]12C)C3(C)C (some centres undefined)" observed_result=0.91
molecule="COC(=O)[C@@H](C(=O)O[C@H]1C[C@@]2(O)[C@@H](OC(=O)c3ccccc3)[C@H]3[C@](C)(C(=O)[C@H](O)C(=C1C)C2(C)C)[C@@H](O)CC1OC[C@]13OC(C)=O)[C@H](NC(=O)OC(C)(C)C)c1ccccc1 (some centres undefined)" observed_result=10
molecule="CC(=O)O[C@H]1C(=O)[C@]2(C)[C@@H](O)CC3OC[C@@]3(OC(C)=O)[C@H]2[C@H](OC(=O)c2ccccc2)[C@]2(O)C[C@H](OC(=O)[C@H](O)[C@H](NC(=O)CC(C)(C)C)c3ccccc3)C(C)=C1C2(C)C (some centres undefined)" observed_result=0.7
molecule="CC(=O)O[C@@H]1C2=C(C)[C@@H](OC(=O)[C@H](O)[C@@H](NC(=O)OC(C)(C)C)C3CCCCC3)C[C@@](O)([C@@H](OC(=O)c3ccccc3)[C@H]3[C@@](C)([C@@H](O)CC4OC[C@]43OC(C)=O)[C@H]1O)C2(C)C (some centres undefined)" observed_result=0.57
molecule="CC(=O)O[C@H]1C(=O)[C@]2(C)[C@@H](O)CC3OC[C@@]3(OC(C)=O)[C@H]2[C@H](OC(=O)C2CCCCC2)[C@]2(O)C[C@H](OC(=O)[C@H](O)[C@@H](NC(=O)C3CCCCC3)C3CCCCC3)C(C)=C1C2(C)C (some centres undefined)" observed_result=0.47
molecule="CC(=O)O[C@@H]1C2=C(C)[C@@H](OC(=O)[C@H](O)[C@@H](NC(=O)OC(C)(C)C)C(O)CO)C[C@@](O)([C@@H](OC(=O)c3ccccc3)[C@H]3[C@@](C)([C@@H](O)CC4OC[C@]43OC(C)=O)[C@H]1O)C2(C)C (some centres undefined)" observed_result=2.71
